Hi there, I'd appreciate the recorded growth for every entry that follows.
Tested on: IGROV1 ovarian
Test: NCI-60 one-dose screen, 48 h (100 = growth as untreated, 0 = no growth, -100 = all killed)
Details: 10 µM
The panel holds about 83,000 compounds, 20% with a hit somewhere; the sample as a whole holds those more often.
Report the figure in % without appending any unit label.

Ask: May I ask what growth has been recorded for CCOc1ccccc1/C=N/Nc1nc2ccccc2o1 ?
Reply: 116

Ask: // same read-out, input: Oc1ccc(N=Nc2ccc(Br)cc2)c(O)c1
Reply: -15.3

Ask: // same read-out, input: N#CCCN(CCCN1CCOCC1)CN1C(=O)c2ccccc2C1=O
Reply: 102

Ask: // same read-out, input: Cc1cc(C)cc(NCCC#N)c1
Reply: 110

Ask: // same read-out, input: COC(=O)c1cccnc1
Reply: 91.9

Ask: // same read-out, input: S=C(Nc1ccccc1)N1CCCCC1
Reply: 100

Ask: // same read-out, input: Cc1cc(NC(=O)CSCC(=O)O)no1
Reply: 114

Ask: // same read-out, input: Cc1ccccc1C1N=C2Oc3ccccc3C=C2C(=O)N1 (stereo not drawn)
Reply: 43.3

Ask: // same read-out, input: OC1CCCc2ccccc21 (stereo not drawn)
Reply: 97

Ask: // same read-out, input: Nc1ccc(N)c([N+](=O)[O-])c1
Reply: 113

Ask: // same read-out, input: COC(=O)/C=C/C(=O)NC(N)=O
Reply: 116

Ask: // same read-out, input: CN(C)CCN(C)CC(C)(C)C(=O)/C=C/c1ccc(Cl)cc1
Reply: 15.6

Ask: // same read-out, input: C/C(=N\NC(=O)c1ccccc1N)c1ccccc1O
Reply: 36.3

###

System: UACC-257 melanoma
Test: NCI-60 one-dose screen, 48 h (100 = growth as untreated, 0 = no growth, -100 = all killed)
Settings: 10 µM
This is part of a sample that, as a whole, favours compounds with a hit. Of some 83,000 tested, about 20% had one in any assay.
Hi! Just check whether growth is below 90%. Below gives true (1), equal or above gives false (0).

Ask: Dear reviewer, please state whether O=C1c2ccccc2C(=O)N1OCc1ccccc1 has growth strictly beneath 90%.
Reply: false (0)

Ask: // same read-out, input: CCOC(=O)C(O)C(O)C(=O)OCC (centres undefined)
Reply: false (0)

Ask: // same read-out, input: O=[N+]([O-])c1ccc(-c2noc(-c3cccs3)n2)cc1
Reply: false (0)

Ask: // same read-out, input: CCNCCCCNCCCCNCCCCNCCCCNCC
Reply: true (1)

Ask: // same read-out, input: O=c1cc(-c2ccccc2)nc2cc(-c3ccco3)[nH]n12
Reply: true (1)

Ask: // same read-out, input: Cc1cccc([N+](=O)[O-])c1Cl
Reply: false (0)

Ask: // same read-out, input: CC(C)=NNC(N)=S
Reply: true (1)

Ask: // same read-out, input: C#C[C@H]1CCCCCC1O (some centres undefined)
Reply: false (0)

Ask: // same read-out, input: COC(=O)c1ccccc1N(C)C
Reply: false (0)

Ask: // same read-out, input: COC(=O)Nc1cccc(Cl)c1OC
Reply: false (0)

Ask: // same read-out, input: O=[N+]([O-])c1cccc(N=Nc2ccc(O)cc2O)c1
Reply: true (1)

Ask: // same read-out, input: O=C(Nc1cc(-c2ccccc2)[nH]n1)c1ccc(Cl)cc1
Reply: true (1)

Reference for the values: PubChem BioAssay (NCI)
